SYSTEM: Serine/threonine-protein kinase Nek11 (Homo sapiens)
Sequence (whole entry): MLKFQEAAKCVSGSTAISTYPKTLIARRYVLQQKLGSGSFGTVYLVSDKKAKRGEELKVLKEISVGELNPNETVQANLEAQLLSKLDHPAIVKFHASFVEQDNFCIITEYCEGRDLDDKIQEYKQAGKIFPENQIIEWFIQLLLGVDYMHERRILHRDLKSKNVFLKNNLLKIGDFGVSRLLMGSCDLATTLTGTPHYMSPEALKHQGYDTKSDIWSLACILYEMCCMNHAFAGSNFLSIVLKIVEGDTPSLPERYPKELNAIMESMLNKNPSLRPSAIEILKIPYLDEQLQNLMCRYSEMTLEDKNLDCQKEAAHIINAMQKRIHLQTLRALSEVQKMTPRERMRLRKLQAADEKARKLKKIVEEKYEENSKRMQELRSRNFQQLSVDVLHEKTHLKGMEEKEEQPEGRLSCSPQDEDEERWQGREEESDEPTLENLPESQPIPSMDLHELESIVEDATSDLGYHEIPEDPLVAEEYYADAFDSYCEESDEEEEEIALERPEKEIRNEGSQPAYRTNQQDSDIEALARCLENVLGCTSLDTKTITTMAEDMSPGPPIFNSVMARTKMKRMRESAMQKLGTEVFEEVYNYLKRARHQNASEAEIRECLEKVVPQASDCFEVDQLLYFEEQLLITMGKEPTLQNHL
EXPERIMENTAL_CONTEXT: at 10 µM
Below, each entry is listed with its recorded residual activity.

| MOLECULE | residual activity, % |
| --- | --- |
| O=C1Nc2ccc(Cl)cc2/C1=C/c1cc(Cl)c(O)c(Cl)c1 | 65 |
| O=C1NC(=O)c2c1c1c3ccccc3[nH]c1n1cncc21 | 34 |
| CCOC(=O)c1c(C)[nH]c(/C=C2\C(=O)Nc3ccccc32)c1C | 98 |
| Cn1sc(=O)n(Cc2ccccc2)c1=O | 62 |
| COc1ccc(Cl)cc1NC(=O)Nc1cc(C)nc2ccccc12 | 93 |
| COc1ccc2c(c1)c(C1=C(c3c[nH]c4ccccc34)C(=O)NC1=O)cn2CCCN(C)C | 48 |
| O=C1NC(=O)C(c2c[nH]c3ccccc23)=C1c1c[nH]c2ccccc12 | 59 |
| Cc1cc(C)c(/C=C2\C(=O)Nc3ccccc32)[nH]1 | 98 |
| O=C1C(Cl)=C(N2C(=O)CCC2=O)C(=O)c2ccccc21 | 33 |
| CN(C)S(=O)(=O)c1ccc2c(c1)/C(=C/c1cc3c([nH]1)CCCC3)C(=O)N2 | 63 |
| O=C(NC(NC(=S)Nc1ccc(F)c([N+](=O)[O-])c1)C(Cl)(Cl)Cl)C(c1ccccc1)c1ccccc1 (configuration not stated) | 49 |
| O=C1Nc2ccccc2/C1=C\c1c(Cl)[nH]c2ccccc12 | 29 |
| N#C/C(=C1/Nc2ccccc2S1)c1ccnc(NCCc2cccnc2)n1 | 6 |
| CCCC(=O)Oc1ccc2[nH]c(C(=O)c3cc4ccccc4[nH]3)cc2c1 | 89 |
| N#C/C(=C\c1ccc(O)c(O)c1)C(=O)NCc1ccccc1 | 103 |
| NC(=O)c1ccc(-c2nc(-c3ccc4c(c3)OCCO4)c(-c3ccccn3)[nH]2)cc1 | 65 |
| O=C(Nc1nc2ccccc2n1CCN1CCOCC1)c1cccc([N+](=O)[O-])c1 | 74 |
| NC(=O)Nc1sc(-c2ccc(F)cc2)cc1C(N)=O | 5 |
| Nc1n[nH]c2nc3ccccc3nc12 | 80 |
| CC(C)c1nn(-c2c(Cl)cccc2Cl)c2nc(Cc3ccc(OCCO)cc3)[nH]c(=O)c12 | 70 |
| CC(C)(C)c1nc2c3ccc(F)cc3c3c(=O)[nH]ccc3c2[nH]1 | 55 |
| O=C(c1cc2cc(O)ccc2[nH]1)c1cc2cc(O)ccc2[nH]1 | 38 |

* * *

Below, each entry is listed with its recorded residual activity.
SYSTEM: Receptor tyrosine-protein kinase erbB-4 (Homo sapiens)
EXPERIMENTAL_CONTEXT: at 1 µM
RESULT_TYPE: residual activity (%)

| SMILES_DATA | SYSTEM | OBSERVED |
| --- | --- | --- |
| CC(C)c1nn(-c2c(Cl)cccc2Cl)c2nc(Cc3ccc(OCCO)cc3)[nH]c(=O)c12 | Receptor tyrosine-protein kinase erbB-4 (Homo sapiens) | 103 |
| CCN1/C(=C/C(C)=O)Sc2ccc(OC)cc21 | Receptor tyrosine-protein kinase erbB-4 (Homo sapiens) | 75 |
| Nc1ncnc2c1c(-c1ccc(Oc3ccccc3)cc1)cn2C1CCCC1 | Receptor tyrosine-protein kinase erbB-4 (Homo sapiens) | 0 |
| COc1cc2nccc(Oc3ccc(NC(=S)NC(=O)c4ccccc4C)cc3)c2cc1OC | Receptor tyrosine-protein kinase erbB-4 (Homo sapiens) | 85 |
| CCCCc1c(-c2ccc(OC)cc2)[nH]c2nccnc12 | Receptor tyrosine-protein kinase erbB-4 (Homo sapiens) | 120 |
| Nc1ncnc2[nH]nc(Nc3ccc(F)cc3)c12 | Receptor tyrosine-protein kinase erbB-4 (Homo sapiens) | 18 |

* * *

SYSTEM: Dual specificity mitogen-activated protein kinase kinase 7 (Homo sapiens)
EXPERIMENTAL_CONTEXT: at 10 µM
Below, each entry is listed with its recorded residual activity.

| COMPOUND | SYSTEM | residual activity / % |
| --- | --- | --- |
| O=C(NC(NC(=S)Nc1ccc(F)c([N+](=O)[O-])c1)C(Cl)(Cl)Cl)C(c1ccccc1)c1ccccc1 (configuration not stated) | Dual specificity mitogen-activated protein kinase kinase 7 (Homo sapiens) | 96 |
| Cn1c2ccccc2c2c3c(c4c5ccccc5n(CCC#N)c4c21)CNC3=O | Dual specificity mitogen-activated protein kinase kinase 7 (Homo sapiens) | 34 |
| CN(C)S(=O)(=O)c1ccc2c(c1)/C(=C/c1cc3c([nH]1)CCCC3)C(=O)N2 | Dual specificity mitogen-activated protein kinase kinase 7 (Homo sapiens) | 95 |
| COc1cc2c(cc1OC)-c1n[nH]c(Nc3cccc(F)c3)c1C2 | Dual specificity mitogen-activated protein kinase kinase 7 (Homo sapiens) | 131 |
| O=C1Cc2c([nH]c3ccc(Br)cc23)-c2ccccc2N1 | Dual specificity mitogen-activated protein kinase kinase 7 (Homo sapiens) | 62 |
| COc1ccc(-c2cnc3c(-c4ccsc4)cnn3c2)cc1 | Dual specificity mitogen-activated protein kinase kinase 7 (Homo sapiens) | 86 |
| COc1ccc(COc2ccc(Cc3cnc(N)nc3N)cc2OC)cc1 | Dual specificity mitogen-activated protein kinase kinase 7 (Homo sapiens) | 80 |

* * *

SYSTEM: Tyrosine-protein kinase Blk (Homo sapiens) (UniProt P51451)
Sequence (P51451 2-505 limits assumed): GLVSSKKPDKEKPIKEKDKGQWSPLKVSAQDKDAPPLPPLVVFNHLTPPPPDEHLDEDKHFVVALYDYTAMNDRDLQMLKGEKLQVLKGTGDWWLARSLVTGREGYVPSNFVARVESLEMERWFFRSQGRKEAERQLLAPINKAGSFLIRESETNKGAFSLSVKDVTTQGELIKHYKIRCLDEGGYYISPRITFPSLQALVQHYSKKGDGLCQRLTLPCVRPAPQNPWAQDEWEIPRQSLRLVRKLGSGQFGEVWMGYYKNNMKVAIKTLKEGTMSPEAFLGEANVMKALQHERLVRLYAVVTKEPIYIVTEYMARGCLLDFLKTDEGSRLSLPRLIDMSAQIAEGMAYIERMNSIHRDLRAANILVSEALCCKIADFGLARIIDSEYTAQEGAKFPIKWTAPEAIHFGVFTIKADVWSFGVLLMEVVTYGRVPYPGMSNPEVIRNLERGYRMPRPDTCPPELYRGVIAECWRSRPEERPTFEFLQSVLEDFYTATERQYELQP
EXPERIMENTAL_CONTEXT: at 1 µM
Below, each entry is listed with its recorded residual activity.

| MOLECULE | residual activity |
| --- | --- |
| COc1cc2nccc(Oc3ccc(NC(=O)Nc4cc(C)on4)c(Cl)c3)c2cc1OC | 2% |
| O=C(O)/C=C/c1cc(Br)c(Br)c(Br)c1Br | 99% |
| NC(=O)c1cccc(-c2cc(Nc3ccc(OC(F)(F)F)cc3)ncn2)c1 | 82% |
| O=C1Nc2ccc(Cl)cc2/C1=C/c1cc(Cl)c(O)c(Cl)c1 | 96% |
| CSc1nc(-c2ccc(F)cc2)c(-c2ccnc(NC(C)c3ccccc3)c2)[nH]1 (stereo unspecified) | 98% |
| CCN(CC)CCNC(=O)c1c(C)[nH]c(/C=C2\C(=O)Nc3ccc(Cl)cc32)c1C | 1% |

* * *

SYSTEM: Protein kinase C theta type (Homo sapiens)
EXPERIMENTAL_CONTEXT: at 1 µM
Threshold check on residual activity: at or above 90% gives true (1), strictly below gives false (0).

| SMILES_DATA | SYSTEM | CAT |
| --- | --- | --- |
| O=C(O)/C=C/c1cc(Br)c(Br)c(Br)c1Br | Protein kinase C theta type (Homo sapiens) | true (1) |
| COc1cc2ncnc(Nc3cccc(Cl)c3)c2cc1OC | Protein kinase C theta type (Homo sapiens) | true (1) |
| Nc1nc(Nc2ccc(S(N)(=O)=O)cc2)nn1C(=O)c1c(F)cccc1F | Protein kinase C theta type (Homo sapiens) | false (0) |
| O=c1cc(N2CCOCC2)oc2c1ccc1ccccc12 | Protein kinase C theta type (Homo sapiens) | true (1) |
| Nc1ncnc2[nH]nc(Nc3ccc(F)cc3)c12 | Protein kinase C theta type (Homo sapiens) | true (1) |
| c1ccc(-c2cnc(Nc3ccc(OCCN4CCCC4)cc3)s2)cc1 | Protein kinase C theta type (Homo sapiens) | true (1) |
| CC(C)(C)n1nc(Cc2cccc3ccccc23)c2c(N)ncnc21 | Protein kinase C theta type (Homo sapiens) | true (1) |
| O=C1NC(=O)C(c2cn(CCCn3ccnc3)c3ccccc23)=C1Nc1ccccc1 | Protein kinase C theta type (Homo sapiens) | false (0) |
| Cc1cc(C)c(/C=C2\C(=O)Nc3ccccc32)[nH]1 | Protein kinase C theta type (Homo sapiens) | true (1) |
| O=C1Cc2c([nH]c3ccc(Br)cc23)-c2ccccc2N1 | Protein kinase C theta type (Homo sapiens) | false (0) |
| O=C(c1cc2cc(O)ccc2[nH]1)c1cc2cc(O)ccc2[nH]1 | Protein kinase C theta type (Homo sapiens) | false (0) |
| COc1cc2nccc(Oc3ccc(NC(=O)Nc4cc(C)on4)c(Cl)c3)c2cc1OC | Protein kinase C theta type (Homo sapiens) | true (1) |
| Oc1cccc(-c2nc(N3CCOCC3)c3oc4ncccc4c3n2)c1 | Protein kinase C theta type (Homo sapiens) | false (0) |
| CC(C)[C@H](CO)Nc1nc(Nc2cc(N)cc(Cl)c2)c2ncn(C(C)C)c2n1 | Protein kinase C theta type (Homo sapiens) | false (0) |
